Kindly state pKd for each of the entries shown.
Molecular target: T1, human transferrin receptor 1 (human, UniProt P02786 89-760, limits assumed)
T1 construct: also called hTfR1; huTfR1
T1 sequence (P02786 89-760 limits assumed): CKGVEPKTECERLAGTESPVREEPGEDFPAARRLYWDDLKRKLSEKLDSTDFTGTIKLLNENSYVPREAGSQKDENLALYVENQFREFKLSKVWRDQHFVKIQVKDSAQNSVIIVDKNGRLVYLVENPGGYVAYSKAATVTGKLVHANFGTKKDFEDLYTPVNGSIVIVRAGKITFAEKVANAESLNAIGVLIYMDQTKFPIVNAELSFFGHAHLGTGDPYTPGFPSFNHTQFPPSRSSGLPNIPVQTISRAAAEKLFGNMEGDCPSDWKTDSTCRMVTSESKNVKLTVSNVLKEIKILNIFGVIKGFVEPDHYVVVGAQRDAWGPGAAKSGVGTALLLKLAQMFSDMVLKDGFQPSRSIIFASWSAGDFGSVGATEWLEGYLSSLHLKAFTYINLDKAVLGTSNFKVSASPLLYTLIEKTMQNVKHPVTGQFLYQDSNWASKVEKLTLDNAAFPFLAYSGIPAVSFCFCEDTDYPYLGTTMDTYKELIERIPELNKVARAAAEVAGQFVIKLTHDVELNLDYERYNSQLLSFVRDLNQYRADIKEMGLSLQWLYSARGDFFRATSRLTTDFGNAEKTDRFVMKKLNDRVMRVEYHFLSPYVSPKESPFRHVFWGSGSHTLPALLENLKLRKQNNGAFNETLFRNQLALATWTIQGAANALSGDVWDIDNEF
Test: average KD, antibody alone; method not given
One number for each entry, as −log10 of the molar value.

// solved cases for pKd follow
| binder | pKd |
| --- | --- |
| 8-K6 (antibody, V domains shown, Tested as a mouse monoclonal IgG; also called 8-K06) VH: QVHLQQPGAELVKPGASVKMSCKASGYTFTSYWITWVKQRPGQGLEWIGDIFPNSGRTNYDEKFKSKATLTVDTSSSTAYMQLSSLTSEDSAVYFCAREGNFGSLDYWGQGTTLTVSS VL: QIVLTQSPAIMSASPGEKVTMTCSANSNLNYMNWYHQKSGTSPKRWIYDTSKLASGVPARFSASGSGTSYSLTISSMEAEDAATYYCQQWSRNPLTFGAGTRLELK | 10.17 |
| 5-H12 (antibody, V domains shown, Tested as a mouse monoclonal IgG) VH: QIQLQQSGPELVRPGASVKISCKASGYSFTDYCINWVNQRPGQGLEWIGWIYPGSGNTRYSERFKGKATLTVDTSSNTAYMQLSSLTSEDSAVYFCAREDYYPYHGMDYWGQGTSVTVSS VL: DIVLTQSPTSLAVSLGQRATISCRASESVDGYDNSFMHWYQQKPGQPPKLLIFRASNLESGIPARFSGSGSRTDFTLTINPVEAADVATYYCQQSSEDPWTFGGGTKLEIK | 6.69 |
| 6-D3 (antibody, V domains shown, Tested as a mouse monoclonal IgG; also called 6-D03) VH: QVQLQQPGAELVKPGASVKMSCKASGYTFTRHWITWVKQRPGQGLEWIGDIYPGSGRTNYNEKFKSTATLTVDTSSSTAYMQLSSLTSEDSAVYYCARDGYLYINYFDYWGQGTTLTVSS VL: ENVLTQSPAIMSASPGEKVTMTCSASSSVSFMHWFQQKSSTSPKLWIYDTSKLASGVPGRFSGSGSGSSYSLTISSMAAEDVATYYCFQGSGYPYTFGGGTKLEIK | 9.01 |
| 9-D4 (antibody, V domains shown, Tested as a mouse monoclonal IgG; also called 9-D04) VH: QVQLQQSGTELARPGASVKLSCKASGFTFTDYGINWVKQRTGQGLEWIGEIYPSSGNSYYNEKFKAKATLTADKSSSTAYMELRSLTSEDSAVYFCARSTYYGSPIDYWGQGTTLTVSS VL: DIVMTQSHKFMSTPVGDRVSITCKASQDVDTTVAWYQQKPGQSPKLLIYWASTRQIGVPDRFTGSGSGTDFTLTISNVQSEDLADYFCQQYSTYPLTFGGGTKLEIK | 8.24 |

Provide pKd for all items below, preserving their order.
1. 9-K23 (antibody, V domains shown, Tested as a mouse monoclonal IgG) VH: QVTLKESGPGMLQPSQTLSLTCSFSGFSLNTYDVGVGWIRQPSGKGLEWLANIWWNDDKYYNSALKSRLTISKDTSNNQVFLKISSVDTADTATYYCTLYSYDGGFAYWGQGTLVTVSA VL: QIVLTQSPAIMSASLGERVTMTCTASSSVSSSYLHWYQQKPGSSPKLWIYSTSNLASGVPARFSGSGSGTSYSLTISSMEAEDAATYYCHQYHRSPYTFGGGTKLEIK
2. 9-C4 (antibody, V domains shown, Tested as a mouse monoclonal IgG; also called 9-C04) VH: EVQLMESGGDLVKPGGSLKLSCAASGFTFSSYGLSWVRQTPDKRLEWVATITSGGSYTYYPDSVKGRFTISRDNARNTLYLQMFSLKSEDTAMYYCALWSLDYWGQGTTLTVSS VL: QIVLTQSPAIMSASPGEKVTMTCSANSSLSYMHWYQQKPGTSPKRWIYDTSELASGVPARFSGSGSGTSYSLTISSMEAEDAATYYCHQRRSYPWTFGGGTKLEIK

[9.50, 7.83]

Data provenance: patent US20230144436A1
